assayMethodText: The compound was tested for the inhibitory activity of FK506 binding protein
Set-up: species or system Homo sapiens
measurementName: IC50 (µM)

[1] CC(C)[C@@H](/C=C/C(=O)N[C@@H](C)c1ccccc1)NC(=O)[C@H](Cc1ccccc1)NC(=O)[C@@H]1CCCCN1CC(=O)c1ccc2ccccc2c1
[2] COC(=O)[C@H](Cc1ccccc1)NC(=O)[C@@H](NC(=O)[C@H](Cc1ccccc1)NC(=O)[C@@H]1CCCCN1CC(=O)c1ccc2ccccc2c1)C(C)C
Asked: Lower IC50: 1 or 2 ? Mark your answer with the label of the selected entry.
Given back: 2
(2: 0.3 µM, 1: 35 µM)

====

assayMethodText: The compound was tested for the inhibitory activity of FK506 binding protein
Set-up: species or system Homo sapiens
pIC50: −log10 of the molar value.
measurementName: pIC50

// solved cases for pIC50 follow
{"molecule": "COc1cccc(C(=O)CN2CCCC[C@H]2C(=O)N[C@H](C(=O)OC(C)(C)C)c2ccsc2)c1", "pIC50": 4.66}
{"molecule": "COc1cccc(C(=O)CN2CCCC[C@H]2C(=O)N[C@@H](Cc2ccccc2)C(=O)OC(C)(C)C)c1", "pIC50": 5.52}
{"molecule": "COc1cccc(C(=O)CN2CCCC[C@H]2C(=O)N[C@@H](Cc2ccccc2)C(=O)N[C@H](/C=C/C2CCCC(=O)O2)C(C)C)c1 (some centres undefined)", "pIC50": 4.38}

[I] CCC(C)C(NC(=O)[C@H](Cc1ccccc1)NC(=O)[C@@H]1CCCCN1CC(=O)c1cccc(OC)c1)C(=O)OC(C)(C)C (some centres undefined)
[II] COc1cccc(C(=O)CN2CCCC[C@H]2C(=O)N[C@@H](Cc2ccccc2)C(=O)N[C@H](/C=C/[C@@H](C)CC(C)=O)C(C)C)c1
[III] COc1cccc(C(=O)CN2CCCC[C@H]2C(=O)N[C@@H](CC2CCCCC2)C(=O)OC(C)(C)C)c1
[IV] CC(=O)OC/C=C/[C@@H](NC(=O)[C@H](Cc1ccccc1)NC(=O)[C@@H]1CCCCN1CC(=O)c1ccc2ccccc2c1)C(C)C
[V] COc1cccc(C(=O)CN2CCCC[C@H]2C(=O)N[C@@H](Cc2ccccc2)C(=O)NC(Cc2ccccc2)C(=O)OC(C)(C)C)c1 (some centres undefined)
Asked: Sort by pIC50, descending. Returns: the labels arranged in the requested order.
Given back: I, II, IV, V, III
(I: 5.22, II: 5.00, IV: 4.74, V: 4.40, III: 4.04)

[I] COc1cccc(C(=O)CN2CCCC[C@H]2C(=O)N[C@H](C(=O)OC(C)(C)C)C(C)C)c1
[II] COc1cccc(C(=O)CN2CCCC[C@H]2C(=O)N[C@@H](Cc2ccccc2)C(=O)N[C@H](/C=C/C2CCC(=O)C2)C(C)C)c1 (some centres undefined)
Asked: Lower pIC50: I or II ? Mark your answer with the label of the selected entry.
Given back: I
(I: 4.08, II: 4.96)

====

assayMethodText: The compound was tested for the inhibitory activity of FK506 binding protein
Parameters: species or system Homo sapiens
pIC50: −log10 of the molar value.
measurementName: pIC50

{"compound": "COc1cccc(C(=O)CN2CCCC[C@H]2C(=O)N[C@@H](Cc2ccccc2)C(=O)N[C@H](C(=O)N[C@@H](Cc2ccccc2)C(=O)N[C@@H](C)c2ccccc2)C(C)C)c1", "measurementName": "pIC50", "resultNumber": 4.23}
{"compound": "C[C@@H](/C=C/c1ccc(C(=O)CN2CCCC2C(=O)NC(Cc2ccccc2)C(=O)OC(C)(C)C)s1)CO[Si](C)(C)C(C)(C)C (some centres undefined)", "measurementName": "pIC50", "resultNumber": 4.22}
{"compound": "COc1cccc(C(=O)CN2CCCC[C@H]2C(=O)N[C@@H](Cc2ccccc2)C(=O)NC(CC2CCCCC2)C(=O)OC(C)(C)C)c1 (some centres undefined)", "measurementName": "pIC50", "resultNumber": 4.15}
{"compound": "COc1cccc(C(=O)CN2CCCC[C@H]2C(=O)N[C@H](Cc2ccccc2)C(=O)OC(C)(C)C)c1", "measurementName": "pIC50", "resultNumber": 4.09}
